- targetOrSystem: Calcium/calmodulin-dependent protein kinase type II subunit alpha (Homo sapiens) (UniProt Q9UQM7);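 further: reported value is a mean percent inhibition of CAMK2A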
- Sequence (Q9UQM7 whole entry): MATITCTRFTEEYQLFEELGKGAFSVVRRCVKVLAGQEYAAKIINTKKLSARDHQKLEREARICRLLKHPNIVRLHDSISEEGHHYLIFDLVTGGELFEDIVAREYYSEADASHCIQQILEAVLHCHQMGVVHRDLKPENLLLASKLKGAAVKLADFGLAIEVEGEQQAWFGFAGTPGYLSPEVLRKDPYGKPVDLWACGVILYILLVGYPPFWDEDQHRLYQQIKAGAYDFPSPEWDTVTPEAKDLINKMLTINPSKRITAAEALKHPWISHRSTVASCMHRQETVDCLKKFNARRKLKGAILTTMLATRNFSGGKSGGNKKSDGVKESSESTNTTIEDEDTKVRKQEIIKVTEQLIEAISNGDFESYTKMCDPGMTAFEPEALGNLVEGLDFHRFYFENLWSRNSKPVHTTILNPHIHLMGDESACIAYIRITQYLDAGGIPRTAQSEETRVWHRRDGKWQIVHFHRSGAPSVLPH
- statedConditions: at 1 µM
Let's look at some molecules and their measured inhibition.
Lab book: enter the figure in %, no units written.

Below: 4 molecules and their reported inhibition.
{"molecule": "CNC(=O)c1cncc(/C=C/c2ccccc2C)c1", "measurementType": "inhibition", "readoutUnits": "%", "recordedValue": 3.24}
{"molecule": "CS(=O)(=O)CCNCc1ccoc1-c1ccc2ncnc(Nc3ccc(OCc4ccccc4)cc3)c2c1", "measurementType": "inhibition", "readoutUnits": "%", "recordedValue": 0.09}
{"molecule": "FC(F)(F)CNc1nccc(-c2cnn3ncccc23)n1", "measurementType": "inhibition", "readoutUnits": "%", "recordedValue": -1.03}
{"molecule": "CC1(C)CC(n2cnc(-c3ccc(F)cc3)c2-c2ccnc(N)n2)CC(C)(C)N1", "measurementType": "inhibition", "readoutUnits": "%", "recordedValue": -1.67}

Request: Quick one: inhibition for CN(c1ccc(NC(=O)NCCN2CCOCC2)cc1)c1ccnc(Nc2ccc(CS(C)(=O)=O)cc2)n1 ?
Result: 1.11

Request: Sample COc1cccc(-n2ncc3c(N/N=C/c4ccc(C(=O)NCCN(C)C)cc4)ncnc32)c1 — what was its inhibition?
Result: 10.4

Request: Recorded inhibition of COc1cccc(Nc2nccc(-c3cnn4ncccc34)n2)c1 , please.
Result: 13.8

Request: What does the record list as inhibition for COc1ccccc1-c1cc(/C=C2\C(=O)Nc3ncc(Br)cc32)cc(Br)c1O ?
Result: 5.91

Request: Record request: inhibition value, item O=C(Nc1n[nH]c2nnc(-c3cccnc3)cc12)C1CC1
Result: 1.88

Request: # input molecule: Fc1cccc(COc2ccc(Nc3ncncc3C#Cc3ccccc3)cc2Cl)c1 ; wanted: its inhibition
Result: 3.65

Request: Which inhibition value is on record for CN1CCC(n2cnc(-c3ccc(F)cc3)c2-c2ccnc(NCCO)n2)CC1 ?
Result: 3.86

Request: Give its inhibition value. Item: CS(=O)(=O)CCNCc1ccc(-c2ccc3ncnc(Nc4ccc(OCc5cccc(C(F)(F)F)c5)cc4)c3c2)o1
Result: 2.36

Request: Need inhibition of Cc1nnc(-c2cccc(-c3ccc(C(=O)NCC4CC4)cc3)c2)o1 , thanks.
Result: 3.99

Request: Which inhibition is listed for NC(=O)c1ccc2c(-c3ccnc(NCCCO)n3)c(-c3ccc(F)cc3)nn2c1 ?
Result: 3.63

Request: // lookup inhibition for Cc1c2ccc(N(C)c3ccnc(Nc4cccc(S(N)(=O)=O)c4)n3)cc2nn1C
Result: 4.44

Request: Please look up its inhibition: CC(C)c1ccc(-c2cc(-c3c[nH]nc3-c3ccccn3)ccn2)cc1
Result: -0.49
